Catalogue of MIC readings, one per entry.
- Tested on: Aspergillus flavus CCUG 28296
- ASSAY_METHOD_TEXT: Robotic MIC assay, Aspergillus (Example 4)
- Assay type: cell-based
- CONDITION_CONTEXT: Aspergillus flavus, CCUG23451 / CCUG28296, 48 h, A. flavus CCUG 23451, 6% OligoG, Mueller-Hinton broth, read-out: Minimum Inhibitory Concentration (MIC)
MEASUREMENT_LABEL: MIC (µg/mL)

OC(Cn1cncn1)(Cn1cncn1)c1ccc(F)cc1F :: 32
C[C@@H]1[C@H](O)[C@@H](C)/C=C/C=C/C=C/C=C/C=C/C=C/C=C/[C@H](O[C@@H]2O[C@H](C)[C@@H](O)[C@H](N)[C@@H]2O)C[C@@H]2O[C@](O)(C[C@@H](O)C[C@@H](O)[C@H](O)CC[C@@H](O)C[C@@H](O)CC(=O)O[C@H]1C)C[C@H](O)[C@H]2C(=O)O :: 0.375
Clc1ccc(COC(Cn2ccnc2)c2ccc(Cl)cc2Cl)c(Cl)c1 (centres unmarked) :: 0.25

---

- System: Aspergillus flavus CCUG 28296
- ASSAY_METHOD_TEXT: Robotic MIC assay, Aspergillus (Example 4)
- Format: cell-based
- CONDITION_CONTEXT: Aspergillus flavus, CCUG23451 / CCUG28296, 48 h, A. flavus CCUG 23451, 10% OligoG, Mueller-Hinton broth, read-out: Minimum Inhibitory Concentration (MIC)
- Procedure: Aspergillus sp. was grown at 30° C. for 96 h on YM-agar. Spores and aerial mycelium was cut out from the agar, suspended in 1 ml YM-broth and dispersed with glass beads (1 mm) in a mini bead beater for 2 min. Glycerol was added to the suspension to 10% and frozen at −80° C. […] The microplates were placed in plastic bags and incubated without shaking at 34° C. The optical density at 600 nm in the microwells was measured after approximately 24 and 48 hours of incubation. […]
MEASUREMENT_LABEL: MIC (µg/mL)

Clc1ccc(COC(Cn2ccnc2)c2ccc(Cl)cc2Cl)c(Cl)c1 (centres unmarked) :: 0.25
C[C@@H]1[C@H](O)[C@@H](C)/C=C/C=C/C=C/C=C/C=C/C=C/C=C/[C@H](O[C@@H]2O[C@H](C)[C@@H](O)[C@H](N)[C@@H]2O)C[C@@H]2O[C@](O)(C[C@@H](O)C[C@@H](O)[C@H](O)CC[C@@H](O)C[C@@H](O)CC(=O)O[C@H]1C)C[C@H](O)[C@H]2C(=O)O :: 0.188
OC(Cn1cncn1)(Cn1cncn1)c1ccc(F)cc1F :: 32

---

Catalogue of MIC readings, one per entry.
- Test system: Aspergillus niger CCUG 18919
- ASSAY_METHOD_TEXT: Robotic MIC assay, Aspergillus (Example 4)
- Format: cell-based
- CONDITION_CONTEXT: Aspergillus niger, CCUG18919, 48 h, A. niger CCUG 18919, 0% OligoG, Mueller-Hinton broth, read-out: Minimum Inhibitory Concentration (MIC)
MEASUREMENT_LABEL: MIC (µg/mL)

CN(C/C=C/C#CC(C)(C)C)Cc1cccc2ccccc12 :: 0.5
C[C@@H]1[C@H](O)[C@@H](C)/C=C/C=C/C=C/C=C/C=C/C=C/C=C/[C@H](O[C@@H]2O[C@H](C)[C@@H](O)[C@H](N)[C@@H]2O)C[C@@H]2O[C@](O)(C[C@@H](O)C[C@@H](O)[C@H](O)CC[C@@H](O)C[C@@H](O)CC(=O)O[C@H]1C)C[C@H](O)[C@H]2C(=O)O :: 0.188
Clc1ccc(COC(Cn2ccnc2)c2ccc(Cl)cc2Cl)c(Cl)c1 (centres unmarked) :: 1
C[C@@H](c1ncncc1F)[C@](O)(Cn1cncn1)c1ccc(F)cc1F :: 0.25

Attribution: patent US20150126467A1
